Target: Mu-type opioid receptor (Cavia porcellus)
Assay: Antagonistic activity against Opioid receptor mu 1 in guinea pig ileum assay
Assay type: functional, tissue-based
PROPERTY_LABEL: IC50 ratio

• CC(=O)Nc1ccc(Cn2c3c(c4ccccc42)C[C@@]2(O)C4Cc5ccc(O)c6c5C2(CCN4CC2CC2)[C@H]3O6)cc1 (some centres not stated) = 0.9
• O=C(CI)Nc1ccccc1Cn1c2c(c3ccccc31)C[C@@]1(O)C3Cc4ccc(O)c5c4C1(CCN3CC1CC1)[C@H]2O5 (some centres not stated) = 0.7
• O=C(CBr)Nc1cccc(Cn2c3c(c4ccccc42)C[C@@]2(O)C4Cc5ccc(O)c6c5C2(CCN4CC2CC2)[C@H]3O6)c1 (some centres not stated) = 3.8
• CC(=O)Nc1cccc(Cn2c3c(c4ccccc42)C[C@@]2(O)C4Cc5ccc(O)c6c5C2(CCN4CC2CC2)[C@H]3O6)c1 (some centres not stated) = 5.3
• CC(=O)Nc1ccccc1Cn1c2c(c3ccccc31)C[C@@]1(O)C3Cc4ccc(O)c5c4C1(CCN3CC1CC1)[C@H]2O5 (some centres not stated) = 1.9
• O=C(CBr)Nc1ccc(Cn2c3c(c4ccccc42)C[C@@]2(O)C4Cc5ccc(O)c6c5C2(CCN4CC2CC2)[C@H]3O6)cc1 (some centres not stated) = 0.7
• Oc1ccc2c3c1O[C@H]1c4c(c5ccccc5n4Cc4ccccc4)C[C@@]4(O)C(C2)N(CC2CC2)CCC314 (some centres not stated) = 1.6

Data provenance: ChEMBL document CHEMBL1128299
